# systemName: Adenosine receptor A1 (Bos taurus)
# Sequence (P28190 whole entry): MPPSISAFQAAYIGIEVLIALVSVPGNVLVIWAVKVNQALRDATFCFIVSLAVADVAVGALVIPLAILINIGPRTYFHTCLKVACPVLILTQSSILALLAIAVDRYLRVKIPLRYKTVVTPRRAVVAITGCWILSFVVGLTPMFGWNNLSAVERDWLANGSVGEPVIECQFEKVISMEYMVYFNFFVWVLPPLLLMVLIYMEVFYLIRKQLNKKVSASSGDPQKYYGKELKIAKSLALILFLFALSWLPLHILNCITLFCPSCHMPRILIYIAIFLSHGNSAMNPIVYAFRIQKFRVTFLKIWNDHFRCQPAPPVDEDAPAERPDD
endpointLabel: log10 of Ki (log10 of the value in µM)
Scale: log10; quantity: Ki; unit before log: µM

Examples with answers:
CNC(=O)[C@H]1O[C@@H](n2cnc3c(NCc4cccc(I)c4)nc(NC)nc32)[C@H](O)[C@]1(C)O :: 0.12
CNC(=O)[C@H]1O[C@@H](n2cnc3c(NCc4cccc(I)c4)ncnc32)[C@H](O)[C@]1(C)O :: 0.75
C[C@@]1(O)[C@H](O)[C@@H](CO)O[C@H]1n1cnc2c(NCc3cccc(I)c3)ncnc21 (stereo in doubt; 3) :: -1.07
OC[C@H]1O[C@@H](n2cnc3c(NCc4cccc(I)c4)ncnc32)[C@H](O)[C@@H]1O :: -1.64
C[C@@]1(O)[C@H](O)[C@@H](CO)O[C@H]1n1cnc2c(NCc3cccc(I)c3)ncnc21 (stereo in doubt) :: -1.30
CNC(=O)[C@H]1O[C@@H](n2cnc3c(NCc4cccc(I)c4)nc(Cl)nc32)[C@](C)(O)[C@@H]1O :: -0.49

Look at each compound and report its log10 of Ki.
1. C[C@@]1(O)[C@@H](CO)OC(n2cnc3c(NC4CCCC4)ncnc32)[C@@H]1O (stereo partly drawn)
2. CNC(=O)[C@H]1O[C@@H](n2cnc3c(NCc4cccc(I)c4)ncnc32)[C@H](O)[C@@H]1O

1: -0.46; 2: -1.92

----------
Data export: pKi values recorded with Adenosine receptor A1 (Bos taurus).
Answers are plain numbers, as −log10 of the molar value.

Examples with answers:
C[C@@]1(O)[C@H](O)[C@@H](CO)O[C@H]1n1cnc2c(NC3CCCC3)ncnc21 :: 8.00
C[C@@]1(O)[C@H](O)[C@@H](CO)O[C@H]1n1cnc2c(NC3CCCCC3)ncnc21 :: 7.52
C[C@@]1(O)[C@H](O)[C@@H](CO)O[C@H]1n1cnc2c(NC3CCCC3)nc(Cl)nc21 :: 8.52
CNC(=O)[C@H]1O[C@@H](n2cnc3c(NCc4cccc(I)c4)ncnc32)[C@](C)(O)[C@@H]1O :: 6.46
C[C@@]1(O)[C@H](O)[C@@H](CO)O[C@H]1n1cnc2c(N)ncnc21 :: 5.95
CNC(=O)[C@H]1O[C@@H](n2cnc3c(NCc4cccc(I)c4)nc(Cl)nc32)[C@H](O)[C@]1(C)O :: 5.34

Next item in the queue.
Quick note, pKi for CCNC(=O)[C@H]1O[C@@H](n2cnc3c(N)ncnc32)[C@](C)(O)[C@@H]1O landed at 6.11

----------
# systemName: UniProtKB P26769
# Sequence (P26769 whole entry): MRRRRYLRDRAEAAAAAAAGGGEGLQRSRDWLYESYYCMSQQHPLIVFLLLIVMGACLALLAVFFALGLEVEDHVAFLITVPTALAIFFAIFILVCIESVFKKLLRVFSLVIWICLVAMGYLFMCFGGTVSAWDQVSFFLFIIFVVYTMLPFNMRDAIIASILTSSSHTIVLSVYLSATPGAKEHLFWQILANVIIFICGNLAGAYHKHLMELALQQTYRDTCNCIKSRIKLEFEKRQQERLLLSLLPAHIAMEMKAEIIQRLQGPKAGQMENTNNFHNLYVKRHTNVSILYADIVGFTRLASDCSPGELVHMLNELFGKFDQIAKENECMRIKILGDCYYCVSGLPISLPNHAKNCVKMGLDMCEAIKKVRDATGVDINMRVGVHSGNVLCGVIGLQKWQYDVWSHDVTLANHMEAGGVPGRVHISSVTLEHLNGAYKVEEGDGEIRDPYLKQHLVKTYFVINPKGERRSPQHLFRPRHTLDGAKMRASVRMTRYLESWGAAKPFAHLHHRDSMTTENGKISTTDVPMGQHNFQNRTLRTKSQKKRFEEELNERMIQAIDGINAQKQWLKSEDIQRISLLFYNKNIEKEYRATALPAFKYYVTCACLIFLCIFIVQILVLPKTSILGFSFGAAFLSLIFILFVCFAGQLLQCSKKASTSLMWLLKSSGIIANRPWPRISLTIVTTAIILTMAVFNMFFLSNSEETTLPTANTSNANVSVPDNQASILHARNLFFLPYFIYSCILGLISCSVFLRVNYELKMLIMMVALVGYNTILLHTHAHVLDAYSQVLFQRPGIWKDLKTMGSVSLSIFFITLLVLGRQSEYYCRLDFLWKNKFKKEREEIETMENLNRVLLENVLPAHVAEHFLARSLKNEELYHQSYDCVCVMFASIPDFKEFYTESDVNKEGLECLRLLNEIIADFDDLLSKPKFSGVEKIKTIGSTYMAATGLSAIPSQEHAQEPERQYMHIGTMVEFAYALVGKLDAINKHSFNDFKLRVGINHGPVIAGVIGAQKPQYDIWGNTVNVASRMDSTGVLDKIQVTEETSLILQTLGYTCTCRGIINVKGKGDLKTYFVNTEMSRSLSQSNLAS
# assayNotes: Maximum percent inhibition of adenylyl cyclase activity in rat cortical membranes
# Format: cell membranes
# setupConditions: Membrane
endpointLabel: inhibition (%)
Give bare numbers, in %.

C[C@@]1(O)[C@@H](CO)OC(n2cnc3c(NC4CCCC4)ncnc32)[C@@H]1O (stereo partly specified) :: 18.1
CNC(=O)[C@H]1O[C@@H](n2cnc3c(NCc4cccc(I)c4)nc(Cl)nc32)[C@](C)(O)[C@@H]1O :: 19.3
O[C@@H]1[C@H](O)[C@@H](O)O[C@H]1n1cnc2c(NC3CCCCC3)ncnc21 :: 16.2
C[C@@]1(O)[C@H](O)[C@@H](CO)O[C@H]1n1cnc2c(NCc3cccc(I)c3)ncnc21 (stereo in doubt; 3) :: 22
C[C@@]1(O)[C@@H](CO)O[C@@H](n2cnc3c(NC4CCCC4)nc(Cl)nc32)[C@@H]1O :: 21.8

Next item in the queue.
Noted inhibition for CNC(=O)[C@H]1O[C@@H](n2cnc3c(NCc4cccc(I)c4)nc(Cl)nc32)[C@H](O)[C@]1(C)O , tested on UniProtKB P26769: 17.8

Measured values drawn from ChEMBL document CHEMBL1144357 for this set.
